system name: CTLA-4 (Homo sapiens (Human)) (UniProt P16410)
Sequence (P16410 36-223): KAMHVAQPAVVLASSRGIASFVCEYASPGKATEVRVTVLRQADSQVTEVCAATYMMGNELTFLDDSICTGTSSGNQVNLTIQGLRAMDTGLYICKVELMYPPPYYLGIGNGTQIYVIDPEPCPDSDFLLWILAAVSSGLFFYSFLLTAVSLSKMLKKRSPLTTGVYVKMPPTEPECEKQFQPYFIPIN
measurement protocol: flow cytometry, transfected cells

# binder, MFI ratio to WT (ΔWT)
rows = [
    ("ICOSL-Fc N52G/N57V (Fc fusion) DTQEKEVRAMVGSDVELSCACPEGSRFDLNDVYVYWQTSESKTVVTYHIPQGSSLEVVDSRYRNRALMSPAGMLRGDFSLRLFNVTPQDEQKFHCLVLSQSLGFQEVLSVEVTLHVAANFSVPVVSAPHSPSQDELTFTCTSINGYPRPNVYWINKTDNSLLDQALQNDTVFLNMRGLYDVVSVLRIARTPSVNIGCCIENVLLQQNLTVGSQTGNDIGERDKITENPVSTGEKNAAT", "0.16 fold"),
    ("ICOSL-Fc N52M/N57W/Q100P (Fc fusion) DTQEKEVRAMVGSDVELSCACPEGSRFDLNDVYVYWQTSESKTVVTYHIPQMSSLEWVDSRYRNRALMSPAGMLRGDFSLRLFNVTPQDEQKFHCLVLSPSLGFQEVLSVEVTLHVAANFSVPVVSAPHSPSQDELTFTCTSINGYPRPNVYWINKTDNSLLDQALQNDTVFLNMRGLYDVVSVLRIARTPSVNIGCCIENVLLQQNLTVGSQTGNDIGERDKITENPVSTGEKNAAT", "1.04 fold"),
]
